- TARGET_OR_TEST_SYSTEM: hTRPV1 (Homo sapiens, UniProt Q8NER1)
- Construct: expressed in transfected cells; host or cells: HEK-293
- Sequence (Q8NER1 whole entry): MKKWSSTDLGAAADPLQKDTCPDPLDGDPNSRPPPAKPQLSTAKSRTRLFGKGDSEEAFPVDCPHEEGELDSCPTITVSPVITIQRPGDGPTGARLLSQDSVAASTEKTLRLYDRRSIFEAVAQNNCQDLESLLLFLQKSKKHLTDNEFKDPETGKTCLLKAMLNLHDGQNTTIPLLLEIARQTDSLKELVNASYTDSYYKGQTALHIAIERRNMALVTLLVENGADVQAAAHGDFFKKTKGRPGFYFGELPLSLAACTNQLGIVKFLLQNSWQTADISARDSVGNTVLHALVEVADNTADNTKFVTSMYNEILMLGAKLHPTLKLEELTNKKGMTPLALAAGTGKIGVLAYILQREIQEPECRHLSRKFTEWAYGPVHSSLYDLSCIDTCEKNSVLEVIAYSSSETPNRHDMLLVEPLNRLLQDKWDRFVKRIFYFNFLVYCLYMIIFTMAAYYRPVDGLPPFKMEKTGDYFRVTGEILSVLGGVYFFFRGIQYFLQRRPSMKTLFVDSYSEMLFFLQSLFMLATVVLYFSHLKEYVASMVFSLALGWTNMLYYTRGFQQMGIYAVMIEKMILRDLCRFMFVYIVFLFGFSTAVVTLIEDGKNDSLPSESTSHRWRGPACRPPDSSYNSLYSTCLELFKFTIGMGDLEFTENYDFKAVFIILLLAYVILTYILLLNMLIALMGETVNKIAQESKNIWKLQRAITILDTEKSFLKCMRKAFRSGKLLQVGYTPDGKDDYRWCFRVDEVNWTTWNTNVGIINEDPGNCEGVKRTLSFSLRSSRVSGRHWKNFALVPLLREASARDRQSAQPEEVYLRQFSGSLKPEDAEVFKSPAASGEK
- TEST_METHOD_NOTES: TRPV1 calcium influx assay (Fluo-4) in HEK-293 cells overexpressing human recombinant TRPV1
- Assay type: cell-based
ASSAY_METRIC: activity on hTRPV1 in words

So what does the record say about activity on hTRPV1 in words for CC1(C)CCC[C@]2(C)[C@@H](CCOCc3cccc(Cl)c3)[C@](C)(O)CC[C@@H]12 ?
inactive

Can you handle COC(=O)CC1C(C)(O)CCC2C(C)(C)CCCC21C (stereo not shown) next?
inactive

Numbers sourced from paper PMC7594054.
